- tested-target: F508delCFTR (Homo sapiens, UniProt P13569, DEL508-508)
- Construct: expressed in transfected cells; host or cells: CFBE41o- human lung derived epithelial cells (CFBE41o-F508delCFTR-HRP), doxycycline-inducible
- Sequence (P13569 with tags, fused parts or gaps DEL508-508): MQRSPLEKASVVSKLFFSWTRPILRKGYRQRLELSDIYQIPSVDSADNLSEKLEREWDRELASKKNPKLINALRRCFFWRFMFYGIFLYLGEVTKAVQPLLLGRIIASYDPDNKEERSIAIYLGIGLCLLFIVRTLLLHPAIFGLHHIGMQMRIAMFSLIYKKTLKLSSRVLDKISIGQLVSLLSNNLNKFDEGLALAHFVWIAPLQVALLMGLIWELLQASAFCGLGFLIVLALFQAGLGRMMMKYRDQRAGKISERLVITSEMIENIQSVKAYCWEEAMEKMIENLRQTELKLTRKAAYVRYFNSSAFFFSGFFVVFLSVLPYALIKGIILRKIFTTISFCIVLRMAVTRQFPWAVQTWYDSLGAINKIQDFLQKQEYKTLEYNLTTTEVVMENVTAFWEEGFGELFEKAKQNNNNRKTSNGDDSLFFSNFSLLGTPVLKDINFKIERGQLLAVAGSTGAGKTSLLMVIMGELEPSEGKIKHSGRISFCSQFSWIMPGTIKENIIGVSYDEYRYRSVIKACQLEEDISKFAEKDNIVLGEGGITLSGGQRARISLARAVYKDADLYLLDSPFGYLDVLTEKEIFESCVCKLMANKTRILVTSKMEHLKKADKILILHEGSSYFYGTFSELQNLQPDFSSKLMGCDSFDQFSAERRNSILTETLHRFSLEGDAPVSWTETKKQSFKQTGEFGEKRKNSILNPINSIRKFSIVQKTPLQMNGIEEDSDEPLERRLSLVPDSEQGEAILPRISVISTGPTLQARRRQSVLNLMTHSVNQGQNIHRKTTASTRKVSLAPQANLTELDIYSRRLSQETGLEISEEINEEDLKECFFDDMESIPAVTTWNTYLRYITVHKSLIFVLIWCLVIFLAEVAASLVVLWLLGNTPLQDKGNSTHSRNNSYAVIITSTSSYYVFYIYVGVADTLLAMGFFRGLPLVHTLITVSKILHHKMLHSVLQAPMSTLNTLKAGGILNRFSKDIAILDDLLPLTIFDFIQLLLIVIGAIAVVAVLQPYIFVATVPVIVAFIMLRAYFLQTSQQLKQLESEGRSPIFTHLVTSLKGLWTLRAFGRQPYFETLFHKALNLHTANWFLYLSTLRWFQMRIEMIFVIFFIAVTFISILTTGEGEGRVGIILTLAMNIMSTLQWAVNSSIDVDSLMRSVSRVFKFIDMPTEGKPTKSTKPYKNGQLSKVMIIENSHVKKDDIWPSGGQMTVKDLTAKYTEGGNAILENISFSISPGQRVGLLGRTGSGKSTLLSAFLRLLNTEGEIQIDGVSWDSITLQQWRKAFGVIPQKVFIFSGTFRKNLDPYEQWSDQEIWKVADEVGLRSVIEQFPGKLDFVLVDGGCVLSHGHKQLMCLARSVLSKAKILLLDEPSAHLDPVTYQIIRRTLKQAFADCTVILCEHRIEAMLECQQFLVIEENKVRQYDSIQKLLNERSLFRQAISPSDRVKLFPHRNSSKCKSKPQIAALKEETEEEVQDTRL
- run-description: Cell Surface Expression-Horse Radish Peroxidase (CSE-HRP) Assay;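 further: co-corrector chromenyl benzoic acid corrector at 2 or 3 µM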
- Type: cell-based
- conditions: with co-corrector; read-out: EC50 (with co-corrector)
pEC50: −log10 of the molar value.
readout-type: pEC50

# smiles-code, tested-target, readout-type, measurement
records = [
    ("COc1ccc(C2CCC2)cc1C1(C(=O)NS(=O)(=O)c2cccc3ncccc23)CC1", "F508delCFTR (Homo sapiens, UniProt P13569, DEL508-508)", "pEC50", "> 5.52"),
    ("COc1ccc(C#N)cc1C1(C(=O)NS(=O)(=O)c2cccc3ncccc23)CC1", "F508delCFTR (Homo sapiens, UniProt P13569, DEL508-508)", "pEC50", "5.00 to 5.52"),
    ("CCc1ccc(O[C@H]2CCOC2)c(C2(C(=O)NS(=O)(=O)c3cccc4nc(C)ccc34)CC2)c1", "F508delCFTR (Homo sapiens, UniProt P13569, DEL508-508)", "pEC50", "> 5.52"),
    ("COc1ncc(C2CCC2)c(C)c1C1(C(=O)NS(=O)(=O)c2cccc3c2CCCN3)CC1", "F508delCFTR (Homo sapiens, UniProt P13569, DEL508-508)", "pEC50", "> 5.52"),
    ("COCc1ccc(OC)c(C2(C(=O)NS(=O)(=O)c3cccc4ncccc34)CC2)c1", "F508delCFTR (Homo sapiens, UniProt P13569, DEL508-508)", "pEC50", "> 5.52"),
    ("CCOCC(C)(C)c1ccc(OC)c(C2(C(=O)NS(=O)(=O)c3cccc4ncccc34)CC2)c1", "F508delCFTR (Homo sapiens, UniProt P13569, DEL508-508)", "pEC50", "> 5.52"),
    ("O=C(NS(=O)(=O)c1cccc2ncccc12)C1(c2ccc(C(F)(F)F)nc2N2CCCC2)CC1", "F508delCFTR (Homo sapiens, UniProt P13569, DEL508-508)", "pEC50", "> 5.52"),
    ("Cc1ccc(OC(F)F)c(C2(C(=O)NS(=O)(=O)c3cccc4nc(C)ccc34)CC2)c1", "F508delCFTR (Homo sapiens, UniProt P13569, DEL508-508)", "pEC50", "> 5.52"),
    ("COc1cc(C2CCC2)cc(OC)c1C1(C(=O)NS(=O)(=O)c2cccc3ncn(C)c23)CC1", "F508delCFTR (Homo sapiens, UniProt P13569, DEL508-508)", "pEC50", "> 5.52"),
    ("COc1ccc(C2(C(=O)NS(=O)(=O)c3ccccc3)CC2)cc1", "F508delCFTR (Homo sapiens, UniProt P13569, DEL508-508)", "pEC50", "< 5.00"),
    ("CCc1cnc(OCC(C)C)c(C2(C(=O)NS(=O)(=O)c3cccc4nc(N)ccc34)CC2)c1", "F508delCFTR (Homo sapiens, UniProt P13569, DEL508-508)", "pEC50", "> 5.52"),
    ("COc1ncc(Cl)cc1C1(C(=O)NS(=O)(=O)c2cccc3ccccc23)CC1", "F508delCFTR (Homo sapiens, UniProt P13569, DEL508-508)", "pEC50", "> 5.52"),
    ("COc1ccc(C)cc1C1(C(=O)NS(=O)(=O)c2cccc3[nH]ncc23)CC1", "F508delCFTR (Homo sapiens, UniProt P13569, DEL508-508)", "pEC50", "> 5.52"),
    ("O=C(NS(=O)(=O)CC(F)(F)F)C1(c2ccc(Cl)cc2Cl)CC1", "F508delCFTR (Homo sapiens, UniProt P13569, DEL508-508)", "pEC50", "< 5.00"),
    ("O=C(NS(=O)(=O)c1cccc2c(O)cccc12)C1(c2cccc(Cl)c2)CC1", "F508delCFTR (Homo sapiens, UniProt P13569, DEL508-508)", "pEC50", "< 5.00"),
    ("O=C(NS(=O)(=O)c1cccc(Cl)c1)C1(c2ccc(Cl)cc2Cl)CC1", "F508delCFTR (Homo sapiens, UniProt P13569, DEL508-508)", "pEC50", "5.00 to 5.52"),
    ("COc1ccc(C(C)(C)C)cc1C1(C(=O)NS(=O)(=O)c2cccc3nc(C)ccc23)CC1", "F508delCFTR (Homo sapiens, UniProt P13569, DEL508-508)", "pEC50", "> 5.52"),
]

====

- tested-target: F508delCFTR (Homo sapiens, UniProt P13569, DEL508-508)
- Construct: expressed in transfected cells; host or cells: CFBE41o- human lung derived epithelial cells (CFBE41o-F508delCFTR-HRP), doxycycline-inducible
- run-description: Cell Surface Expression-Horse Radish Peroxidase (CSE-HRP) Assay;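 further: co-corrector chromenyl benzoic acid corrector at 2 or 3 µM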
- Assay type: cell-based
- conditions: test compound with co-corrector; read-out: EC50 (with co-corrector)
- Method: A cellular assay for measuring the F508delCFTR cell surface expression after correction with test compounds either without or with a co-corrector (2 μM of 3-[(2R,4R)-4-({[1-(2,2-difluoro-1,3-benzodioxol-5-yl)cyclopropyl]carbonyl}amino)-7-methoxy-3,4-dihydro-2H-chromen-2-yl]benzoic acid), was developed in human lung derived epithelial cell line (CFBE4lo−) (Veit G et al, (2012) Mol Biol Cell. 23(21): 4188-4202). […] The raw counts from the experiment were analyzed using Accelrys® Assay Explorer v3.3. […]
In this section, each of the compounds is paired with its reported EC50.

# smiles-code, EC50
rows = [
    ("CCc1cnc(OCC(C)C)c(C2(C(=O)NS(=O)(=O)c3cccc4[nH]ccc34)CC2)c1", "< 3 µM"),
    ("COc1cc(OC(C)C)c(C2(C(=O)NS(=O)(=O)c3cccc4[nH]ccc34)CC2)cn1", "3 to 10 µM"),
    ("CCc1cnc(N2CCCC2)c(C2(C(=O)NS(=O)(=O)c3cccc4ncccc34)CC2)c1", "3 to 10 µM"),
    ("COc1cnc(N2CCCC2)c(C2(C(=O)NS(=O)(=O)c3cccc4ncccc34)CC2)c1", "3 to 10 µM"),
    ("CCc1cnc(OCC(C)C)c(C2(C(=O)NS(=O)(=O)c3cccc4nc(C)ccc34)CC2)c1", "< 3 µM"),
    ("Cc1cnc(OCC(C)C)c(C2(C(=O)NS(=O)(=O)c3cccc4[nH]ccc34)CC2)c1", "< 3 µM"),
    ("CC(C)COc1ncc(C2CCC2)cc1C1(C(=O)NS(=O)(=O)c2cccc3ncccc23)CC1", "< 3 µM"),
    ("Cc1cnc(N2CCCC2)cc1C1(C(=O)NS(=O)(=O)c2cccc3ncccc23)CC1", "3 to 10 µM"),
]

====

In this section, each of the compounds is paired with its reported pEC50.
- tested-target: F508delCFTR (Homo sapiens, UniProt P13569, DEL508-508)
- Construct: expressed in transfected cells; host or cells: CFBE41o- human lung derived epithelial cells (CFBE41o-F508delCFTR-HRP), doxycycline-inducible
- run-description: Cell Surface Expression-Horse Radish Peroxidase (CSE-HRP) Assay;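 further: co-corrector chromenyl benzoic acid corrector at 2 or 3 µM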
- Format: cell-based
- conditions: test compound with co-corrector; read-out: EC50 (with co-corrector)
pEC50: −log10 of the molar value.

# smiles-code, pEC50
data = [
    ("O=C(NS(=O)(=O)c1cccc2ncccc12)C1(c2cc(Cl)cnc2F)CC1", "< 5.00"),
    ("CCc1cnc(N2CCC(OC(C)C)CC2)c(C2(C(=O)NS(=O)(=O)c3cccc4[nH]ccc34)CC2)c1", "> 5.52"),
    ("CCOc1ncc(C2CCC2)cc1C1(C(=O)NS(=O)(=O)c2cccc3ncccc23)CC1", "> 5.52"),
    ("CCc1cnc(OCC2CC2)c(C2(C(=O)NS(=O)(=O)c3cccc4ncccc34)CC2)c1", "> 5.52"),
    ("CC(C)Oc1cnc(C2CCC2)cc1C1(C(=O)NS(=O)(=O)c2cccc3c2CCCN3)CC1", "5.00 to 5.52"),
    ("COc1nc(C(F)(F)F)ccc1C1(C(=O)NS(=O)(=O)c2cccc3c2CCCN3)CC1", "5.00 to 5.52"),
    ("CCc1ccncc1C1(C(=O)NS(=O)(=O)c2cccc3c2CCCN3)CC1", "5.00 to 5.52"),
    ("Cc1cnc(N2CCCC2)c(C2(C(=O)NS(=O)(=O)c3cccc4nc(C)ccc34)CC2)c1", "5.00 to 5.52"),
]

====

- tested-target: F508delCFTR (Homo sapiens, UniProt P13569, DEL508-508)
- Construct: expressed in transfected cells; host or cells: CFBE41o- human lung derived epithelial cells (CFBE41o-F508delCFTR-HRP), doxycycline-inducible
- run-description: Cell Surface Expression-Horse Radish Peroxidase (CSE-HRP) Assay;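 further: co-corrector chromenyl benzoic acid corrector at 2 or 3 µM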
- Type: cell-based
- conditions: with co-corrector; read-out: EC50 (with co-corrector)

# smiles-code, EC50
rows = [
    ("CCOc1ccc(C(C)(C)COC)cc1C1(C(=O)NS(=O)(=O)c2cccc3ncccc23)CC1", "< 3 µM"),
    ("COc1ccc(C2CCC2)c(C2(C(=O)NS(=O)(=O)c3cccc4nc(C)ccc34)CC2)c1", "< 3 µM"),
    ("CCOc1cccc(OC)c1C1(C(=O)NS(=O)(=O)c2cccc3ncccc23)CC1", "< 3 µM"),
    ("O=C(N1CCc2ccc(S(=O)(=O)NC(=O)C3(c4cccc(Cl)c4)CC3)cc2C1)C(F)(F)F", "> 10 µM"),
    ("O=C(OCc1ccccc1)N1CCC(S(=O)(=O)NC(=O)C2(c3ccc(Cl)c(Cl)c3)CC2)CC1", "> 10 µM"),
    ("O=C1CCCN1c1ccc(S(=O)(=O)NC(=O)C2(c3ccc(Cl)cc3Cl)CC2)cc1", "> 10 µM"),
    ("Cc1cnc(OC(C)C)c(C2(C(=O)NS(=O)(=O)c3cccc4nc(N)ccc34)CC2)c1", "< 3 µM"),
    ("CCOc1ccc(C)cc1C1(C(=O)NS(=O)(=O)c2cccc3[nH]c(C)cc23)CC1", "< 3 µM"),
]
